# protocol description: Cytotoxicity against human H1299 cells at 10 uM after 48 hrs by MTT assay realtive to control
# Type: functional
# condition info: NCI-H1299, 48 h
Please go through the items and note down their viability at 10 µM.
Your reply should be a number followed by the unit it is expressed in.

Worked cases, answers included:
smiles text: O=C(Nc1ccc2c(c1)C(=O)c1cc(NC(=O)c3ccccc3)ccc1C2=O)c1ccccc1
recorded measurement: 47%
--
smiles text: CN1CCN(CCC(=O)Nc2ccc3c(c2)C(=O)c2cc(NC(=O)CCN4CCN(C)CC4)ccc2C3=O)CC1
recorded measurement: 80%

Go through the items and report each one's viability at 10 µM.
1. CC(=O)Nc1ccc2c(c1)C(=O)c1cc(NC(C)=O)ccc1C2=O
2. CCN(CC)CC(=O)Nc1ccc2c(c1)C(=O)c1cc(NC(=O)CN(CC)CC)ccc1C2=O
3. CCC(=O)Nc1ccc2c(c1)C(=O)c1cc(NC(=O)CC)ccc1C2=O
4. CC(C)CNCC(=O)Nc1ccc2c(c1)C(=O)c1cc(NC(=O)CNCC(C)C)ccc1C2=O

["83%", "47%", "38%", "39%"]
